Compiled record: Ki values for Sodium-dependent noradrenaline transporter (Homo sapiens, UniProt P23975) across several sources.
measured quantity: Ki (nM)

INSERT INTO assay_data (molecular_string, test_system, measured_quantity, unit_of_measurement, qualifier_operator, observed) VALUES
  ('CCCC[C@@H](Oc1ccc(F)cc1)[C@H]1CCNC1', 'Sodium-dependent noradrenaline transporter (Homo sapiens, UniProt P23975)', 'Ki', 'nM', '≤', 10),
  ('Fc1ccc(-c2ccccc2)c(CO[C@H]2CCNC2)c1', 'Sodium-dependent noradrenaline transporter (Homo sapiens, UniProt P23975)', 'Ki', 'nM', '=', 65.9),
  ('COc1cc(Cl)ccc1O[C@@H](C1CC1)[C@H]1CCNC1', 'Sodium-dependent noradrenaline transporter (Homo sapiens, UniProt P23975)', 'Ki', 'nM', '≤', 10),
  ('Cc1ccc(Cl)c(Oc2ncccc2OC[C@H]2CCCNC2)c1.O=C(O)/C=C/C(=O)O', 'Sodium-dependent noradrenaline transporter (Homo sapiens, UniProt P23975)', 'Ki', 'nM', '=', 4),
  ('FC(F)(F)Oc1cccc(-c2ccccc2CO[C@H]2CCNC2)c1', 'Sodium-dependent noradrenaline transporter (Homo sapiens, UniProt P23975)', 'Ki', 'nM', '=', 87),
  ('Clc1ccc(-c2ccccc2CO[C@H]2CCNC2)cc1', 'Sodium-dependent noradrenaline transporter (Homo sapiens, UniProt P23975)', 'Ki', 'nM', '=', 41.6),
  ('c1ccc(-c2ccc3c(c2)OCCO3)c(CO[C@H]2CCNC2)c1', 'Sodium-dependent noradrenaline transporter (Homo sapiens, UniProt P23975)', 'Ki', 'nM', '=', 3880),
  ('CCCC[C@@H](Oc1cc(F)c(F)cc1F)[C@H]1CCNC1', 'Sodium-dependent noradrenaline transporter (Homo sapiens, UniProt P23975)', 'Ki', 'nM', '≤', 10);

###

pKi: −log10 of the molar value.
This section presents pKi values reported for Sodium-dependent noradrenaline transporter (Homo sapiens) in the literature.
measured quantity: pKi

INSERT INTO assay_data (molecular_string, measured_quantity, qualifier_operator, observed) VALUES
  ('CCC[C@@H](Oc1cc(Cl)cc(Cl)c1)[C@@H]1CCNC1', 'pKi', '≥', 8.00),
  ('CCOc1ccc(-n2nc3c(NCc4cc(C)ccn4)nnc(C)c3c2C)c(F)c1', 'pKi', '<', 6.00),
  ('CC(=O)c1ccccc1O[C@@H](C1CCCCC1)[C@@H]1CCNC1', 'pKi', '≥', 8.00),
  ('O=c1c(N2CCNCC2)nc2ccccc2n1-c1ccccc1Cl', 'pKi', '=', 7.36),
  ('Fc1ccc2nc(C3CCNCC3)nc(-c3ccccc3F)c2c1', 'pKi', '=', 7.75),
  ('CC1(COc2nn(-c3ccccc3F)c3ccc(F)cc23)CCNCC1', 'pKi', '=', 6.56),
  ('COc1ccc(OC[C@H]2CCCNC2)c(Oc2ccc(Cl)cc2OC)c1', 'pKi', '=', 7.34),
  ('Brc1ccc2nc(N3CCNCC3)nc(-c3ccccc3)c2c1', 'pKi', '=', 6.68);

###

Compiled notes: published pKi values involving UniProt:P23975.
pKi: −log10 of the molar value.
measured quantity: pKi

INSERT INTO results (molecule, observed) VALUES
  ('CCC[C@H](Oc1c(Cl)cccc1Cl)[C@H]1CCNC1', '≥ 8.00'),
  ('CNCc1ccccc1Cc1ccc2[nH]c(C(N)=O)cc2c1', '~8.40'),
  ('CCOc1ccc(-n2nc3c(N(C)Cc4cc(C)ccn4)nnc(C)c3c2C)c(F)c1', '6.00 to 6.30'),
  ('CNCCC(Oc1cccc(-n2nc3c(N(C)C)nnc(C)c3c2C)c1)c1cncs1 (stereo not shown)', '6.00 to 6.30'),
  ('Cc1cccc(-c2ccccc2CO[C@H]2CCNC2)c1', 7.20),
  ('CC(C)Oc1ccccc1Oc1ncccc1OC[C@H]1CCCNC1.O=C(O)/C=C/C(=O)O', 7.96),
  ('CC(C)C[C@H](Oc1cccc(Cl)c1C(F)(F)F)[C@@H]1CCNC1', '≥ 7.00'),
  ('Fc1ccc(-c2cccc(C(F)(F)F)c2)c(CO[C@H]2CCNC2)c1', 6.22),
  ('c1cc(-c2ccccc2CO[C@H]2CCNC2)cc(-n2cccn2)c1', 5.48),
  ('CNCC[C@H](Oc1cccc(-n2nc3c(N(C)C)nnc(C)c3c2C)c1)c1ccccc1F', '> 7.00'),
  ('CC(C)[C@H](Oc1ccc(Cl)cc1Cl)[C@H]1CCNC1', '≥ 8.00'),
  ('CC(C)C[C@H](Oc1c(F)c(F)cc(F)c1Cl)[C@H]1CCNC1', '≥ 8.00'),
  ('CCOc1ccc(-c2ccccc2CO[C@H]2CCNC2)cc1', 5.90);

###

// compounds with reported Ki on Sodium-dependent noradrenaline transporter (Homo sapiens, UniProt P23975), multi-publication
measured quantity: Ki

INSERT INTO assay_data (compound, observed) VALUES
  ('CNCCC(Oc1cccc(-n2nc3c(N(C)C)nnc(C)c3c2C)c1)c1cccnc1 (stereo not drawn)', '0.1 to 0.5 µM'),
  ('CC(C)C[C@@H](Oc1ccc(Cl)cc1)[C@@H]1CCNC1', '≤ 0.1 µM'),
  ('COc1cc(F)ccc1O[C@H](C1CC1)[C@H]1CCNC1', '≤ 0.1 µM'),
  ('Cc1ccc(Oc2ncccc2OC[C@H]2CCCNC2)cc1', '0.004 µM'),
  ('CN1CCC(c2nc(-c3cccc(F)c3)c3ccccc3n2)CC1', '0.0535 µM'),
  ('Fc1ccc(Cl)c(Cl)c1O[C@@H](C1CC1)[C@H]1CCNC1', '≤ 0.01 µM'),
  ('Fc1cccc(-c2ccccc2CO[C@H]2CCNC2)c1', '0.0185 µM'),
  ('CCOc1ccc(-n2nc3c(N(C)CCCc4ccccc4O)nnc(C)c3c2C)c(F)c1', '0.5 to 1 µM'),
  ('CC(C)CC(Oc1c(F)cc(Cl)cc1F)C1CCNC1 (stereo not drawn)', '≤ 0.01 µM'),
  ('FC(F)(F)Oc1cccc(Oc2ncccc2OC[C@H]2CCCNC2)c1.O=C(O)/C=C/C(=O)O', '0.102 µM'),
  ('Cc1ccc(OC[C@H]2CCCNC2)c(Oc2ccc(C(C)C)cc2)n1', '4.8 µM'),
  ('CCc1ccccc1-c1ccc(F)cc1CO[C@H]1CCNC1', '1.34 µM'),
  ('CC(C)Oc1ccc(-c2ccc(F)cc2CO[C@H]2CCNC2)cc1', '3.83 µM'),
  ('Cc1nc(N(C)c2ccc(OCCF)cc2)c2c(C)coc2n1', '> 10 µM'),
  ('Cc1nnc(N(C)C)c2nn(-c3cccc(OC(CCNCC(F)F)c4ccccc4)c3)c(C)c12 (stereo not drawn)', '0.5 to 1 µM'),
  ('CC(C)C[C@H](Oc1cccc(Cl)c1F)[C@H]1CCNC1', '≤ 0.01 µM'),
  ('CCOc1ccc(-n2nc3c(N(C)CCc4ccccc4)nnc(C)c3c2C)c(F)c1', '0.1 to 0.5 µM'),
  ('Clc1cccc(-c2ccccc2CO[C@H]2CCNC2)c1', '0.0438 µM'),
  ('Cc1ccc(OC[C@H]2CCCNC2)c(Oc2ccccc2)n1', '0.004 µM'),
  ('Clc1cccc(-c2nc(N3CCNCC3)nc3ccccc23)c1', '0.0286 µM'),
  ('CCOc1ccc(-n2nc3c(NCCc4ccccn4)nnc(C)c3c2C)c(F)c1', '> 1 µM'),
  ('CC(C)[C@H](Oc1c(F)ccc(Cl)c1Cl)[C@H]1CCNC1', '≤ 0.01 µM'),
  ('COc1cc(Cl)ccc1O[C@@H](C(C)C)[C@H]1CCNC1', '≤ 0.01 µM'),
  ('Clc1ccc(-c2nc(N3CCNCC3)nc3ccccc23)cc1Cl', '0.114 µM'),
  ('FC(F)(F)c1ccc(O[C@@H](C2CC2)[C@H]2CCNC2)cc1', '≤ 0.1 µM'),
  ('Fc1ccc(Oc2ncccc2OC[C@H]2CCCNC2)c(Cl)c1.O=C(O)/C=C/C(=O)O', '0.002 µM'),
  ('CC(C)C[C@H](Oc1cc(F)c(F)cc1F)[C@H]1CCNC1', '≤ 0.01 µM'),
  ('CCC[C@H](Oc1cccc(Cl)c1C(F)(F)F)[C@@H]1CCNC1', '≤ 0.1 µM'),
  ('CC1CN(c2nc(-c3ccccc3)c3ccccc3n2)CCN1 (stereo not drawn)', '0.041 µM'),
  ('Clc1ccc(Cl)c(-c2nc(N3CCNCC3)nc3ccccc23)c1', '0.0322 µM'),
  ('N[C@@H]1CCN(c2nc(-c3c(F)cccc3F)c3ccc(F)cc3n2)C1', '0.0219 µM'),
  ('CNCC(Oc1cccc(-n2nc3c(N(C)C)nnc(C)c3c2C)c1)c1cccs1 (stereo not drawn)', '0.5 to 1 µM'),
  ('Fc1ccccc1-c1nc(N2CCNCC2)nc2ccc(Cl)cc12', '0.0256 µM');
